experiment: in vitro; conditions: human, hela cells, % viability
property-label: viability at 28.5 h, 10 µM (%)

[[record]]
compound = "Cc1cccn2cc(-c3ccc4c(c3)CCN4S(C)(=O)=O)cc12"
readout_unit = "%"
reported_result = 95.5

[[record]]
compound = "O=C(Cc1cccc(F)c1)NCCn1nc(-c2ccco2)ccc1=O"
readout_unit = "%"
reported_result = 86.3

[[record]]
compound = "CC(=O)Nc1ccc(Nc2nc(Br)cn3ccnc23)cc1"
readout_unit = "%"
reported_result = 104

[[record]]
compound = "Cc1ccc(C)c(-c2nc(-c3cccnc3)no2)c1"
readout_unit = "%"
reported_result = 102

[[record]]
compound = "Nc1nnc(SCC(=O)c2ccc3ccccc3c2)s1"
readout_unit = "%"
reported_result = 97.7

[[record]]
compound = "Cn1cnnc1SCC(=O)Nc1c(F)cccc1F"
readout_unit = "%"
reported_result = 88.2

[[record]]
compound = "Cc1ccc(C(=O)NC2CCN(C(=O)Nc3cc(Cl)ccc3F)CC2)s1"
readout_unit = "%"
reported_result = 88.8

[[record]]
compound = "CCOC(=O)CCCNC(=O)N(CC)Cc1ccccc1"
readout_unit = "%"
reported_result = 106

[[record]]
compound = "O=C(NC1CC1)C1(Cc2ccccc2-c2cccnc2)CCOCC1"
readout_unit = "%"
reported_result = 88.7

[[record]]
compound = "O=C(COc1ccccc1)Nc1nccs1"
readout_unit = "%"
reported_result = 93.4

[[record]]
compound = "O=C(COc1ccc(-c2ccccc2)cc1)N/N=C/c1ccncc1"
readout_unit = "%"
reported_result = 93.2

[[record]]
compound = "CSc1nc2c(cc1C#N)CCC2"
readout_unit = "%"
reported_result = 108

[[record]]
compound = "O=C(O)Cc1ccc(Oc2ncc(C(F)(F)F)cc2Cl)cc1"
readout_unit = "%"
reported_result = 104

[[record]]
compound = "O=C(NCCO)c1cccc(-c2cncc(N3CCN(Cc4ccccn4)CC3)n2)c1"
readout_unit = "%"
reported_result = 90.1

[[record]]
compound = "Cc1c2c(n(-c3ccccc3)[n+]1[O-])NC1(CCC1)[C@@H]1C[C@@H](O)[C@@H](O)[C@H]21"
readout_unit = "%"
reported_result = 91.5

[[record]]
compound = "COCc1ccc(C(=O)N2CCC(c3cc4cnccc4[nH]3)CC2)o1"
readout_unit = "%"
reported_result = 90.9

[[record]]
compound = "Cc1c(C2CC(C(F)(F)F)n3nccc3N2)cnn1C (centres unmarked)"
readout_unit = "%"
reported_result = 93.9

[[record]]
compound = "O=C(O)CCN1C(=O)C(O)=C(C(=O)c2ccc(Cl)cc2)C1c1ccccc1[N+](=O)[O-] (centres unmarked)"
readout_unit = "%"
reported_result = 98.8

[[record]]
compound = "COc1ccc(C(=O)Nc2ccc(S(=O)(=O)N3CCN(C)CC3)cc2)cc1[N+](=O)[O-]"
readout_unit = "%"
reported_result = 97

[[record]]
compound = "COc1ccc(C(=O)O)cc1S(=O)(=O)Nc1cccc(C=Cc2ccccn2)c1"
readout_unit = "%"
reported_result = 110


----------
experiment: in vitro; settings: human, hela cells, % viability
property-label: viability at 28.5 h, 10 µM (%)

[[record]]
compound = "CCN1CC2(CCN(Cc3ccc4nsnc4c3)CC2)c2ccccc21 [CBK136994]"
property_label = "viability at 28.5 h, 10 µM"
readout_unit = "%"
reported_result = 87.7

[[record]]
compound = "O=C(c1cc(CC2(NCc3ccc(F)cc3)COC2)no1)N1CCCCC1 [CBK289657]"
property_label = "viability at 28.5 h, 10 µM"
readout_unit = "%"
reported_result = 92.4

[[record]]
compound = "O=C(C1CCCN(CC(O)c2cccs2)C1)N1CCCCCC1 (stereo not drawn) [CBK282117]"
property_label = "viability at 28.5 h, 10 µM"
readout_unit = "%"
reported_result = 100

[[record]]
compound = "O=C(Nc1ccc([C@@H](O)[C@H]2COCC(=O)N2Cc2ccc(F)cc2)cc1)c1cccnc1 [CBK289062]"
property_label = "viability at 28.5 h, 10 µM"
readout_unit = "%"
reported_result = 93.3

[[record]]
compound = "CC(C)(C)OC(=O)N(Cc1cccs1)S(C)(=O)=O [CBK019338]"
property_label = "viability at 28.5 h, 10 µM"
readout_unit = "%"
reported_result = 94.1

[[record]]
compound = "CN1CCN(CCC(=O)N/N=C/c2c[nH]c3ccccc23)CC1 [CBK261502]"
property_label = "viability at 28.5 h, 10 µM"
readout_unit = "%"
reported_result = 94.7

[[record]]
compound = "Cc1nc(N)sc1-c1nnc(Nc2ccccc2)s1 [CBK267353]"
property_label = "viability at 28.5 h, 10 µM"
readout_unit = "%"
reported_result = 82.7

[[record]]
compound = "O=C(NCCO)C1(Cc2ccc(-c3ccccc3)cc2)CCNC1 (stereo not drawn) [CBK283043]"
property_label = "viability at 28.5 h, 10 µM"
readout_unit = "%"
reported_result = 83.9

[[record]]
compound = "Cc1ccccc1-c1cnc(NS(C)(=O)=O)c(C(=O)N(C)C)c1 [CBK106430]"
property_label = "viability at 28.5 h, 10 µM"
readout_unit = "%"
reported_result = 103


----------
test: in vitro; conditions: human, hela cells, % viability
Reported viability at 28.5 h, 10 µM values for the following compounds.
property-label: viability at 28.5 h, 10 µM (%)

[[record]]
compound = "CCCN1CCC2CN(CCCC(=O)c3ccc(F)cc3)CCN2C1=O (centres unmarked) [CBK024882C]"
reported_result = 101

[[record]]
compound = "CCOc1ccccc1-c1noc(CSc2nnc(-c3ccncc3)n2-c2cccc(C)c2)n1 [CBK269076]"
reported_result = 104

[[record]]
compound = "CC(C)c1ccccc1NC(=O)NCCc1cccs1 [CBK043938]"
reported_result = 97.9

[[record]]
compound = "CCN1CCN(c2c(Cl)cccc2NC(=O)c2ccc(N3CCOCC3)c([N+](=O)[O-])c2)CC1 [CBK269066]"
reported_result = 98.8

[[record]]
compound = "COc1cccc(C(=O)N2CCC(Cc3ccccc3-c3ccccc3C)(C(N)=O)CC2)c1 [CBK285722]"
reported_result = 94.5


----------
Reported viability at 28.5 h, 10 µM values for the following molecules.
assay: in vitro; settings: human, hela cells, % viability
property-label: viability at 28.5 h, 10 µM (%)

[[record]]
molecule = "Cc1cccc2cc(CN(Cc3cccnc3)C(=O)Nc3ccccc3Cl)c(=O)[nH]c12 [CBK108869]"
reported_result = 97.9

[[record]]
molecule = "O=C(NCc1nc2ccccc2s1)c1ccc2c(c1)OCCO2 [CBK295325]"
reported_result = 107

[[record]]
molecule = "CCCc1n[nH]c(=S)n1CC(=O)NCc1ccc(Oc2cc(C)ccc2C)nc1 [CBK297742]"
reported_result = 87.5

[[record]]
molecule = "Cc1cc(C(=O)NCCCN(C)C)ccc1[N+](=O)[O-] [CBK262467]"
reported_result = 90.8

[[record]]
molecule = "Cc1nc(C(=O)NC2CCN(C)CC2)ccc1C(=O)O [CBK304262]"
reported_result = 95.2

[[record]]
molecule = "CCCc1c(O)n[nH]c1Cc1ccc(Cl)cc1 [CBK078564]"
reported_result = 104

[[record]]
molecule = "CC(C)NC(=O)c1cc([C@H]2CC[C@H](CNC(=O)Cn3cccn3)CC2)nc2ccccc12 [CBK285859]"
reported_result = 112

[[record]]
molecule = "Cc1ccc(N(CC(=O)NCC2CCCO2)S(=O)(=O)c2ccc(Cl)cc2)cc1 (stereo not drawn) [CBK269039]"
reported_result = 104

[[record]]
molecule = "COc1ccc([C@@]23CC[C@@H](NC(=O)Nc4cccc(C#N)c4)C[C@@H]2N(C)CC3)cc1OC [CBK036448T]"
reported_result = 103


----------
assay: in vitro; conditions: human, hela cells, % viability
property-label: viability at 28.5 h, 10 µM (%)

[[record]]
compound = "CC(C)[C@H](CO)Nc1nc(-c2ccco2)cn2ccnc12"
readout_unit = "%"
reported_result = 103

[[record]]
compound = "O=C(O)c1ccc(NS(=O)(=O)c2cccc([N+](=O)[O-])c2)cc1O"
readout_unit = "%"
reported_result = 84.8

[[record]]
compound = "COc1ccc(Br)c(C(=O)Nc2[nH]nc(O)c2Cc2c(Cl)cccc2Cl)c1"
readout_unit = "%"
reported_result = 111

[[record]]
compound = "O=C(CNc1ccc2ccccc2c1)N/N=C/c1cc2c(cc1[N+](=O)[O-])OCO2"
readout_unit = "%"
reported_result = 83.1

[[record]]
compound = "CC1CN(c2cc(CNc3ncccc3Cl)ccn2)CCO1 (centres unmarked)"
readout_unit = "%"
reported_result = 88.3

[[record]]
compound = "CS(=O)(=O)N1CCC2(CC1)NC(=O)N(Cc1ccccc1)C2=O"
readout_unit = "%"
reported_result = 100

[[record]]
compound = "CCOc1cc2c(cc1NC(=O)CN(c1cccc(Cl)c1)S(C)(=O)=O)OC(C)C2 (centres unmarked)"
readout_unit = "%"
reported_result = 94.6

[[record]]
compound = "CCOc1ccc(S(=O)(=O)N2CCN(CCCC#N)CC2)c2cccnc12"
readout_unit = "%"
reported_result = 91.6

[[record]]
compound = "O=C1C2C3C=CC(C2C(=O)N1CCO)C1C2C(=O)N(CCO)C(=O)C2C31 (centres unmarked)"
readout_unit = "%"
reported_result = 101

[[record]]
compound = "CC(C)c1cc(C(=O)N(CCO)CC2CC3C=CC2C3)n(C)n1 (centres unmarked)"
readout_unit = "%"
reported_result = 84.6

[[record]]
compound = "COc1ccc(NC(=O)c2ccc3c(c2)C(=O)N(Cc2ccncc2)C3=O)cc1"
readout_unit = "%"
reported_result = 97.7

[[record]]
compound = "COC(=O)c1ccccc1NC(=O)COc1ccc(Cl)c2cccnc12"
readout_unit = "%"
reported_result = 104

[[record]]
compound = "COc1ccc(/C(C#N)=C/c2ccc(-c3ccc(C(=O)O)cc3)o2)cc1OC"
readout_unit = "%"
reported_result = 108

[[record]]
compound = "CC(C)[C@H]1N=C2C=C(C(C)(C)C)ON2[C@H]2[C@H](O)[C@H](O)C[C@H]21"
readout_unit = "%"
reported_result = 90.1

[[record]]
compound = "Cc1cc(C(=O)CSc2nc3cc(Cl)cnc3[nH]2)c(C)n1C1CC1"
readout_unit = "%"
reported_result = 79.5

[[record]]
compound = "O=C(O)C1CCCCC1C(=O)NCCN1CCCCC1 (centres unmarked)"
readout_unit = "%"
reported_result = 91.4

[[record]]
compound = "CSc1nnc(-c2sccc2OCc2ccc(Cl)cc2Cl)n1C"
readout_unit = "%"
reported_result = 111

[[record]]
compound = "COc1cc(C(=O)Oc2cccc(Nc3ncnc4ccccc34)c2)cc(OC)c1OC"
readout_unit = "%"
reported_result = 109

[[record]]
compound = "CC(C)c1ccc(OCC(=O)NNC(=O)c2ccco2)c(Br)c1"
readout_unit = "%"
reported_result = 86.7

[[record]]
compound = "Cc1cc(C)c(NC(N)=O)c(C)c1"
readout_unit = "%"
reported_result = 105

[[record]]
compound = "CCC(C(=O)O)c1ccc(-n2sc3ccccc3c2=O)cc1 (centres unmarked)"
readout_unit = "%"
reported_result = 105

[[record]]
compound = "COc1cc(CNc2cc(-c3ccco3)ncn2)cc(OC)c1OC"
readout_unit = "%"
reported_result = 106

[[record]]
compound = "O=C(Nc1cccc(Cl)c1)N(Cc1ccncc1)CC1CCCO1 (centres unmarked)"
readout_unit = "%"
reported_result = 93

[[record]]
compound = "Cc1cc(-c2cn3cc(C(=O)N4CCNCC4)nc3c(=O)n2C)c(C)o1"
readout_unit = "%"
reported_result = 108

[[record]]
compound = "O=C(Nc1nc2nccc(-c3ccccc3)n2n1)c1cccc([N+](=O)[O-])c1"
readout_unit = "%"
reported_result = 87.6

[[record]]
compound = "Cc1nc2ccc(C(=O)NCC3CCCN(C(C)C)C3)cc2[nH]1 (centres unmarked)"
readout_unit = "%"
reported_result = 90

[[record]]
compound = "OCc1cccc(-c2cncc(NCCc3cccnc3)n2)c1"
readout_unit = "%"
reported_result = 98.8

[[record]]
compound = "CCN1CCN(CC(=O)N/N=C/c2ccc(F)cc2)CC1"
readout_unit = "%"
reported_result = 108

[[record]]
compound = "CCC1CCCCN1S(=O)(=O)c1ccc(NC(=O)Cn2c(=O)oc3ccccc32)cc1 (centres unmarked)"
readout_unit = "%"
reported_result = 89.2

[[record]]
compound = "COc1ccc(-c2cc(C(=O)NCc3ccc(F)cc3)cnc2-c2cccc(C)c2)cc1"
readout_unit = "%"
reported_result = 98.8

[[record]]
compound = "CN1CCC(N2CCN(C(=O)c3ccc4nc[nH]c4c3)CC2)CC1"
readout_unit = "%"
reported_result = 94.7

[[record]]
compound = "Cc1cc(C)c2nc(NC(=O)c3ccc(=O)n(CC(=O)NC4CCCCC4)c3)sc2c1"
readout_unit = "%"
reported_result = 107

[[record]]
compound = "COc1ccc(Cn2nc(NC(C)=O)c3ccccc32)cc1"
readout_unit = "%"
reported_result = 109

[[record]]
compound = "COCCCN1C(=O)C(O)=C(C(=O)c2ccc(Cl)cc2)C1c1cccc(O)c1 (centres unmarked)"
readout_unit = "%"
reported_result = 105

[[record]]
compound = "CN(C)CCN(C)C(=O)c1ccc(-c2cccc(N(C)C)c2)nc1N(C)C"
readout_unit = "%"
reported_result = 89.6

[[record]]
compound = "COc1ccc(OC)c(C(=O)N2CCNC(=O)C2Cc2ccccc2-c2ccc(F)cc2)c1 (centres unmarked)"
readout_unit = "%"
reported_result = 105

[[record]]
compound = "c1ccc(CN2CCC(c3ccncc3)CC2)nc1"
readout_unit = "%"
reported_result = 101

[[record]]
compound = "O=C(CC1CCCCO1)Nc1cccc(Cn2ccnc2)c1 (centres unmarked)"
readout_unit = "%"
reported_result = 90.6


Data provenance: paper PMC12040169
